# ASSAY METHOD TEXT: chemical genetic growth profiling, strain panel (AID 1159580);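 also: tested at 20 µM; growth read once vehicle control cultures reached saturation at 30 °C; 1 = growth at the plate median or of vehicle wells; lower values mean less growth of the strain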
# ASSAY CONDITIONS: S. cerevisiae deletion strains, growth OD, locus YPR167C, strain met16, active compounds read low
Among all 5,500 compounds or so, about 2,000 (36%) were called active. Another 18% or so got no clear call; they are omitted. The list shows a part of the results.
Measured normalized growth by item
VALUE KIND: normalized growth

{"columns": ["COMPOUND", "VALUE KIND", "MEASURED NUMBER"],
 "data": [
  ["CCCCC1=NC2(CCCC2)C(=O)N1Cc1ccc(-c2ccccc2-c2nn[nH]n2)cc1", "normalized growth", 0.991],
  ["CC(=O)NCCCCCC(=O)O", "normalized growth", 0.977],
  ["O=c1[nH]c(=O)n(C2C[C@@H](O)[C@@H](CO)O2)cc1F (stereo partly specified)", "normalized growth", 1.02],
  ["COc1c2c(cc3c1OCO3)CCN(C)C2", "normalized growth", 0.996],
  ["C=C(CC)C(=O)c1ccc(OCC(=O)O)c(Cl)c1Cl", "normalized growth", 0.989],
  ["CC(C)NCC(O)c1ccc2ccccc2c1 (stereo unspecified)", "normalized growth", 0.989]
]}
